So I've got a bunch of compounds here, and I need their Bas values.
Species: Rattus norvegicus
Experiment: Open TG-GATES - Regimen: Single
Assay type: toxicity, organism-based, Sprague-Dawley
Set-up: regimen Single, gender Male, age 6 weeks
Details: in vivo, po, 0 mg/kg, 9 h, tissue Blood, route gavage, dose level Control
Give bare numbers, in %.

Before answering, review these 3 worked examples.
Compound	Units	Bas
COc1ccc(O)c(C(C)(C)C)c1.COc1ccc(O)cc1C(C)(C)C [BUTYLATED HYDROXYANISOLE]	%	0.2
Cn1cnc([N+](=O)[O-])c1Sc1ncnc2nc[nH]c12	%	0
CNCCC(Oc1ccc(C(F)(F)F)cc1)c1ccccc1.Cl (centres undefined) [FLUOXETINE HYDROCHLORIDE]	%	0

The record that follows has no Bas shown yet.
Output measured Bas for this item: COc1ccc(Cl)cc1C(=O)NCCc1ccc(S(=O)(=O)NC(=O)NC2CCCCC2)cc1 [GLYBURIDE] 0

Data credit: ChEMBL document CHEMBL3885861
